- target system: Recombinant human JAK1 (catalytic domain, amino acids 866-1154) (Homo sapiens, UniProt P23458)
- Construct: catalytic domain, amino acids 866-1154
- Sequence (P23458 866-1154): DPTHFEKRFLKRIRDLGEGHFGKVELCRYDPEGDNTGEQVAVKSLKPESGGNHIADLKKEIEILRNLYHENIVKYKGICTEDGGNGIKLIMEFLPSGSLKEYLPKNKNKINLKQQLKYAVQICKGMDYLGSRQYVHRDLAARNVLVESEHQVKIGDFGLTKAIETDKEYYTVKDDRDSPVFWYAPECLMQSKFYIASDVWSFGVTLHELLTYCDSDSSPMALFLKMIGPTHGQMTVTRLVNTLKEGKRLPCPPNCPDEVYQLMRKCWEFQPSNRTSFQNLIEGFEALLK
- test description: JAK1 inhibition assay
- condition parameters: read-out: JAK1 potency IC50
- Description: After 60 min at room temperature, reactions are stopped by adding 20 μL/well of detection mixture (1× detection buffer (Perkin Elmer, catalog number CR97-100), 0.5 nM Europium-anti-phosphotyrosine (PT66) (Perkin Elmer, catalog number AD0068/AD0069), 10 mM EDTA). […] Kinase activity is calculated by subtracting the ratio obtained in the presence of a positive control inhibitor (1 μM staurosporine) from the ratio obtained in the presence of vehicle. […]
pIC50: −log10 of the molar value.
Please mark t if the recorded pIC50 is equal to or greater than 7, and f if it falls below.

compound: CCNC(=O)c1ccc(Nc2cc(Oc3cnc(C#N)cc3C)nc3c2ncn3C)nc1C [Compound 78]
class label: t
//
compound: Cc1cc(C#N)ncc1Oc1cc(Nc2ccc(C(=O)NCC(C)O)nn2)c2ncn(C)c2n1 (centres unmarked) [Compound 25]
class label: f
//
compound: Cn1cnc2c(Nc3cc(N)ncn3)cc(NC(C3CC3)C3CC3)nc21 [Compound 95]
class label: f

Check this compound for pIC50 at or above 7: CC(C)C(Nc1cc(Nc2cc(N)ncn2)c2ncn(C)c2n1)C(F)(F)F (centres unmarked) [Compound 93]
t

Check this compound for pIC50 at or above 7: Cc1cc(C#N)ncc1Nc1cc(Nc2ccc(C(=O)N(C)C)nn2)c2ncn(C)c2n1 [Compound 76]
f

---

- Tested on: IL-12 activation of STAT4 in NK-92 cells
- test description: IL-12 activation of STAT4 in NK-92 cells using AphaLISA SureFire technology
- Type: cell-based
- condition parameters: Homo sapiens, NK92; IL-12 activation of STAT4 in NK-92 cells, AlphaLISA SureFire; average IC50; read-out: IL12 pSTAT4 IC50
Where a name gives a salt, the structure may show the parent alone.
IC50 values for the compounds below.
The figure you give is taken to be in nM; do not add the unit.

For this compound ( Cc1cc(C#N)ncc1Oc1cc(Nc2ccc(CN(C)CCN(C)C)cn2)c2ncn(C)c2n1 [Compound 83, formate salt] ), measured IC50 is 987

For this compound ( Cc1cc(C#N)ncc1Oc1cc(Nc2ccc(C(=O)N(C)C)nn2)c2ncn(C)c2n1 [Compound 73] ), measured IC50 is 158

For this compound ( Cc1cc(C#N)ncc1Oc1cc(Nc2ccc(C(=O)N3C[C@H](O)[C@@H](N4CCOCC4)C3)cn2)c2ncn(C)c2n1 [Compound 154] ), measured IC50 is 8720

---

- target system: Recombinant human JAK2 (catalytic domain, amino acids 808-1132) (Homo sapiens, UniProt O60674)
- Construct: catalytic domain, amino acids 808-1132
- Sequence (O60674 808-1132): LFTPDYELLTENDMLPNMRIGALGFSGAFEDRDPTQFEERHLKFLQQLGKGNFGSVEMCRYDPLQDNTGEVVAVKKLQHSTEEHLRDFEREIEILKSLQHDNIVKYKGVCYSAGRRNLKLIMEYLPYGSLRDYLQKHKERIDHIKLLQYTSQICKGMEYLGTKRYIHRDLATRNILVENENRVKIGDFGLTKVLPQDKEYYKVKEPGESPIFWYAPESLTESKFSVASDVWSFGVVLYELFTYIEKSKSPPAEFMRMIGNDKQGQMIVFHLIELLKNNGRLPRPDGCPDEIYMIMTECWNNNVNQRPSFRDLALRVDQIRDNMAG
- test description: JAK2 inhibition assay; also: 0.7 µM ATP
- condition parameters: read-out: JAK2 potency IC50
Counter-ions that a name gives are not always drawn.
endpoint name: pIC50
FYI, pIC50 means -log10 of a concentration in mol per litre.

See these solved cases before continuing.
molecule: Cc1cc(C#N)ncc1Oc1cc(Nc2ccc(C(N(C)C)C(F)(F)F)cn2)c2ncn(C)c2n1 (centres unmarked)
val: 8.25
--
molecule: CCNC(=O)c1ccc(Nc2cc(Oc3cnc(C#N)cc3C)nc3c2ncn3C)nn1
val: 7.18
--
molecule: Cn1cnc2c(Nc3ccc(S(C)(=O)=O)cn3)cc(OC(C3CC3)C(F)(F)F)nc21 (centres unmarked)
val: 8.47

For this molecule ( Cc1cc(C#N)ncc1Oc1cc(Nc2ccc(CN(C)C)cn2)c2ncn(C)c2n1 [Compound 81, formate salt] ), measured pIC50 is 7.98

For this molecule ( CN(c1cc(Nc2cc(N)ncn2)c2ncn(C)c2n1)C12CC(C1)C2 ), measured pIC50 is 7.50

For this molecule ( CC(C)[C@@H](Nc1cc(Nc2ccc(C(=O)N(C)C)cn2)c2ncn(C)c2n1)C(F)(F)F ), measured pIC50 is 8.20

For this molecule ( Cc1cc(C#N)ncc1Oc1cc(Nc2cnn(C)c2)c2ncn(C)c2n1 ), measured pIC50 is 7.23

For this molecule ( Cc1cc(C#N)ncc1Oc1cc(Nc2ccc(C(=O)NCC(C)O)nc2)c2ncn(C)c2n1 (centres unmarked) ), measured pIC50 is 6.11

---

log10(IC50) values for the molecules below.
- target system: Recombinant human JAK3 catalytic domain (amino acids 781-1124) (Homo sapiens, UniProt P52333)
- Sequence (P52333 781-1124): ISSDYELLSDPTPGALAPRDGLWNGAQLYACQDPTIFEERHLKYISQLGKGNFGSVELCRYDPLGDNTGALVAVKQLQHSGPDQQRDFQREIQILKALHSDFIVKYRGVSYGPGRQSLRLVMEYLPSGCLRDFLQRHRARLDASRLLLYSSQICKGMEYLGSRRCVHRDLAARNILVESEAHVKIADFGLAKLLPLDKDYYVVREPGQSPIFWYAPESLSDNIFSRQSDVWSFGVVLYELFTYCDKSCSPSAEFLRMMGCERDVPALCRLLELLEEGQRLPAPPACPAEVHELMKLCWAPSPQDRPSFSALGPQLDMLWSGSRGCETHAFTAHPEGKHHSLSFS
- test description: JAK3 inhibition assay
For clarity, the numbers are log10 values of IC50 expressed in µM.

See these solved cases before continuing.
molecule: CCNC(=O)c1cnc(Nc2cc(Oc3cnc(C#N)cc3C)nc3c2ncn3C)cc1C [Compound 64]
log10(IC50): 0.51

molecule: Cc1cc(C#N)ncc1Oc1cc(Nc2cnn(CCN3CCOCC3)c2)c2ncn(C)c2n1 [Compound 186]
log10(IC50): -0.59

molecule: Cc1cc(C#N)ncc1Nc1cc(Nc2ccc(C(=O)N(C)C)nn2)c2ncn(C)c2n1 [Compound 76]
log10(IC50): -0.24

For this molecule ( COCCCNc1cc(Nc2cc(Oc3cnc(C#N)cc3C)nc3c2ncn3C)ncn1 [Compound 32] ), measured log10(IC50) is -0.22

For this molecule ( CCNC(c1ccc(Nc2cc(Oc3cnc(C#N)cc3C)nc3c2ncn3C)nc1)C(F)(F)F (stereo not drawn) [Compound 80] ), measured log10(IC50) is -0.41

For this molecule ( COc1ccc(Nc2cc(Oc3cnc(C#N)cc3C)nc3c2ncn3C)nc1 [Compound 84] ), measured log10(IC50) is -0.04

For this molecule ( Cc1cc(C#N)ncc1Oc1cc(Nc2ccc(C3(O)COC3)cc2)c2ncn(C)c2n1 [Compound 89] ), measured log10(IC50) is 0.30

For this molecule ( Cc1cc(C#N)ncc1Oc1cc(Nc2ccc(C(=O)N3CC(O)C3)nn2)c2ncn(C)c2n1 [Compound 115] ), measured log10(IC50) is 0.32

For this molecule ( Cc1cc(C#N)ncc1Oc1cc(Nc2ccc(N(C)C)cn2)c2ncn(C)c2n1 [Compound 185] ), measured log10(IC50) is -0.06

---

- Test system: IL-12 activation of STAT4 in NK-92 cells
- test description: IL-12 activation of STAT4 in NK-92 cells using AphaLISA SureFire technology
- Type: cell-based
- condition parameters: Homo sapiens, NK92; IL-12 activation of STAT4 in NK-92 cells, AlphaLISA SureFire; average IC50; read-out: IL12 pSTAT4 IC50
pIC50 values for the molecules below.
FYI, pIC50 means -log10 of a concentration in mol per litre.

molecule: COCCCN(c1cc(Nc2cc(N)ncn2)c2ncn(C)c2n1)c1cnc(C#N)cc1C
pIC50: 6.70
//
molecule: COC1CC(Nc2cc(Nc3cc(Oc4cnc(C#N)cc4C)nc4c3ncn4C)ncn2)C1 (centres unmarked)
pIC50: 7.30

For this molecule ( Cc1cc(C#N)ncc1Oc1cc(Nc2ccc(N3CCOC(C(C)C)C3)nn2)c2ncn(C)c2n1 (stereo in doubt) [Compound 177] ), measured pIC50 is 7.62

For this molecule ( Cc1cc(C#N)ncc1Oc1cc(Nc2ccc(C(=O)N3CCN(C4CCC4)CC3)cn2)c2ncn(C)c2n1 ), measured pIC50 is 7.08

For this molecule ( Cc1cc(C#N)ncc1Oc1cc(Nc2ccc(C(=O)N3CCO[C@@H](C)C3)cn2)c2ncn(C)c2n1 ), measured pIC50 is 6.68

---

- target system: Recombinant human JAK2 (catalytic domain, amino acids 808-1132) (Homo sapiens, UniProt O60674)
- Construct: catalytic domain, amino acids 808-1132
- test description: JAK2 inhibition assay; also: 0.7 µM ATP
- condition parameters: read-out: JAK2 potency IC50
endpoint name: IC50 (nM)
The figure you give is taken to be in nM; do not add the unit.

See these solved cases before continuing.
compound: COCCCNc1cc(Nc2cc(Oc3cnc(C#N)cc3C)nc3c2ncn3C)ncn1
endpoint name: IC50
val: 26.2
//
compound: Cc1cc(C#N)ncc1N(CC(C)O)c1cc(Nc2cc(N)ncn2)c2ncn(C)c2n1 (centres unmarked)
endpoint name: IC50
val: 42.3

For this compound ( COCCCS(=O)(=O)c1ccc(Nc2cc(Oc3cnc(C#N)cc3C)nc3c2ncn3C)cc1 ), measured IC50 is 86.2

For this compound ( Cc1cc(C#N)ncc1Oc1cc(Nc2ccc(C(=O)N3CC(O)C3)nn2)c2ncn(C)c2n1 ), measured IC50 is 29.1

For this compound ( CCNC(=O)c1ccc(Nc2cc(NC(C3CC3)C(F)(F)F)nc3c2ncn3C)cn1 (centres unmarked) ), measured IC50 is 42

For this compound ( Cc1cc(C#N)ncc1Oc1cc(Nc2ccc(C3CCOCC3)cn2)c2ncn(C)c2n1 ), measured IC50 is 38.8

For this compound ( Cc1cc(C#N)ncc1Oc1cc(Nc2ccc(S(C)(=O)=O)cn2)c2ncn(C)c2n1 ), measured IC50 is 35.5

For this compound ( C[C@H]1COCC[C@@H]1N(C)c1cc(Nc2cc(N)ncn2)c2ncn(C)c2n1 ), measured IC50 is 14.6
